Values compiled from the supplement of paper PMC12764529.

# experimentalProtocol: folding stability dG unfold (combined trypsin and chymotrypsin); higher = more stable
Label condition met when folding stability dG unfold is at or above 9 kJ/mol; otherwise label condition not met.

Determine whether this sequence has folding stability dG unfold no lower than 9 kJ/mol: SAGGSAEKVEIKVTYDKETGKVTVEIRVEVDLSEEQLKKLKELAEELGLEVEVTVEVRYEPPPPKESAGGSA [r15_542_TrROS_Hall]
condition met

Determine whether this sequence has folding stability dG unfold no lower than 9 kJ/mol: SAGGSGMAEAEALAAELAAATEKTPLGRTATVSVDTEVRPETGLTLLTVTTTGPGAPTTTPTTLPGRSAGGS [r16_812_JUSTAS]
condition not met

Determine whether this sequence has folding stability dG unfold no lower than 9 kJ/mol: SAGMKPGETRHIPIRPGMPPEEFIEEIEAEGPVKIWFPGRKREIDSPDDIEDNFRNFPEPMPIEVKVPSAGG [r19_95_TrROS]
condition not met

Determine whether this sequence has folding stability dG unfold no lower than 9 kJ/mol: SAGGIRIRDEDGKPRAEYTIYHPDHGMPIEINVYRNKDGNPYIQVEMTGPNGRPKKFTMPADDLNDLSAGGS [r8_24_TrROS]
condition not met

Determine whether this sequence has folding stability dG unfold no lower than 9 kJ/mol: SAGGSAGGSAGGSGNGMKLVKKKEVVKEEGAVVKLPNGETIEVPPDETITVEIEEEVSLSAGGSAGGSAGGS [r4_26_JUSTAS]
condition not met

Determine whether this sequence has folding stability dG unfold no lower than 9 kJ/mol: SAGGSMTISYDPSTGTVTITDPTVPLNTPRSITITFPGGETFTATLTPLPDNSATATYTVVPTAGASAGGSA [r2_89_JUSTAS]
condition not met

Determine whether this sequence has folding stability dG unfold no lower than 9 kJ/mol: SAGGSAGGSAGMEISTKTLPGDKYELTITLPDSKGTPITVTITFTSEEEAKKKLEEIIKKSAGGSAGGSAGG [r11_819_JUSTAS]
condition met
